Ref: the METLIN SMRT retention time set (Domingo-Almenara et al. 2019)

assay: gradient 5% acetonitrile 3 min, to 50% in 2 min, to 85% in 15 min, held 3 min, 100 µL/min; conditions: column: Zorbax Extend-C18 2.1 x 50 mm; eluents: water / acetonitrile, 0.1% formic acid
Entries and their RP-LC retention time

compound	RP-LC retention time
Cc1ccc(CCNS(=O)(=O)c2ccc3c(c2)CCCC(=O)N3)cc1	789 s
COc1ccc(C(=O)N(CC(=O)N(Cc2ccco2)CC2CCCO2)C(C)(C)C)cc1 (stereo unspecified)	862 s
Cc1oc(-c2cccc(Cl)c2)nc1Cn1nnc(-c2nc(-c3cccc(F)c3)no2)c1C	1360 s
Cc1cccc(NC(=O)C2CCN(S(=O)(=O)c3cc(C(=O)N4CCOCC4)cs3)CC2)n1	648 s
CCCNc1cc(N2CCCC(CCC(=O)NCCOC)C2)ncn1 (stereo unspecified)	592 s
CCOC(=O)c1c(C)oc2nc(C)nc(NCC3CCN(Cc4ccccc4F)CC3)c12	702 s
CCc1nnc2c(=O)n(CC(=O)NC(C)c3ccccc3)c3cccnc3n12 (stereo unspecified)	714 s
O=C(c1cc2c(s1)CCC(C(=O)N1CCN(c3ccccn3)CC1)C2)N1CCCCC1 (stereo unspecified)	621 s
CC(C)NC[C@H](O)COc1cccc2ccccc12	720 s
Cc1ccc(-c2noc(CCN3CCN(C(C)C)CC3)n2)cc1	640 s
CCC(=O)Nc1nc(-c2ccc(C(C)C)cc2)cs1	1000 s
Cc1ccc(S(=O)(=O)N2CCc3c(c(-c4nnc(-c5ccccc5)o4)nn3C)C2)cc1Cl	1070 s
Cc1noc(C)c1CCC(=O)N1CC(n2cc(COc3ccc(F)cc3)nn2)C1	736 s
CCCCc1ccc(N2C(=O)CC(c3ccc(OC)c(OC)c3)CC2=O)cc1	1040 s
COCCc1noc(-c2ccc(=O)n(CC(=O)Nc3cc(F)ccc3C)c2)n1	704 s
Cc1cccc(NC(=O)C2CCCN(S(=O)(=O)c3c[nH]c(C(=O)N4CCCC4)c3)C2)c1C (stereo unspecified)	802 s
Cc1cccc(C(=O)N2C[C@@H](F)C[C@H]2C(=O)N2CCOCC2)c1	620 s
Cc1ccc2oc(N3CCCN(C(=O)c4ccc(-c5noc(C(C)C)n5)cc4)CC3)nc2n1	664 s
Cc1cc(C)n(CC(C)C(=O)Nc2ccc(Br)cc2)n1 (stereo unspecified)	800 s
CNC(=O)N1c2ccccc2CC1c1nc(C(C)C)no1 (stereo unspecified)	799 s
CCOC(=O)c1cccc(NC(=O)Nc2cccc(-c3ccc(N4CCOCC4)nn3)c2)c1	742 s
O=C([C@@H]1C[C@H](F)CN1C(=O)Nc1cccc(Br)c1)N1CCCCC1	753 s
CN1CCc2c(n(CC(O)Cn3nnc4ccccc43)c3ccccc23)C1=O (stereo unspecified)	754 s
O=c1c2sccc2n(Cc2nc(-c3cccc(C(F)(F)F)c3)no2)c(=O)n1Cc1ccccc1	1190 s
COc1ccc(-c2noc(Cn3nc(-c4ccccc4)ccc3=O)n2)c(OC)c1	880 s
CCOc1ccc(CN(CCOC)Cc2cc(=O)n3cc(Cl)ccc3n2)cc1	677 s
Cc1ccc(-c2nc(-c3ccc4nnn(C)c4c3)no2)cc1	968 s
CCN1CCn2cc(C(=O)NCc3cccc(Br)c3)nc2C1	600 s
O=C(c1cc2occc2c(Nc2ccc(Cl)cc2)n1)N1CCN(c2ccccn2)CC1	713 s
CN(CC1CCOCC1)C(=O)Cc1ccccc1	695 s
CCc1ccc(-c2noc(CN3C(=O)COc4ccc(S(=O)(=O)CC)cc43)n2)cc1	1000 s

----------
experiment: gradient 5% acetonitrile 3 min, to 50% in 2 min, to 85% in 15 min, held 3 min, 100 µL/min; details: column: Zorbax Extend-C18 2.1 x 50 mm; eluents: water / acetonitrile, 0.1% formic acid

smiles_code	unit_symbol	RP-LC retention time
Cc1ccc(Cn2nc(C(=O)NCc3ccco3)ccc2=O)cc1	s	788
CN1c2cc(F)ccc2C(=O)NC12CCN(C(=O)c1ccc(F)c(Cl)c1)CC2	s	823
CCN1c2ccc(F)cc2C(=O)NC12CCN(C(=O)c1ccc(OC)cc1C)CC2	s	802

----------
Let's look at some compounds and their measured RP-LC retention time.
assay: gradient 5% acetonitrile 3 min, to 50% in 2 min, to 85% in 15 min, held 3 min, 100 µL/min; details: column: Zorbax Extend-C18 2.1 x 50 mm; eluents: water / acetonitrile, 0.1% formic acid

compound	RP-LC retention time
COc1ccccc1N1CCN(C(=O)c2csc3nc(-c4ccc(F)cc4)cn23)CC1	879 s
O=C(Cn1c(=O)n(-c2ccccc2)c2ncccc21)NCCN1CCCCC1	585 s
COCCn1cc2c3c(cccc31)CN(C(=O)Nc1cc(F)ccc1F)CC2	938 s
CCOc1cc(-c2noc(-c3ncn4c3COC(c3ccc(OC)cc3)C4)n2)ccc1OC (configuration not stated)	992 s
Cc1cc(NC(=O)C2CC2)nn1Cc1ccccc1	746 s
CCOc1ccc(S(=O)(=O)N(CC(=O)N2CCNCC2)CC2CCCO2)cc1 (configuration not stated)	626 s
COc1ccc2c(c1)C1(CCN(C(=O)Nc3ccc(F)cc3)C1)C(=O)N2 (configuration not stated)	683 s
O=C(NCc1ccc(OC(F)(F)F)cc1)C1c2c(F)cccc2C(=O)N1CCc1ccccn1 (configuration not stated)	787 s
c1ccc(-c2noc(N3CCN(c4ccccn4)CC3)n2)cc1	668 s
COc1cccc(NC(=O)Cn2c(=O)c(CCC(=O)NCC(C)C)nc3ccccc32)c1	798 s
O=C(CCCn1c(=O)c2cccn2c2ccc(Br)cc21)NCc1ccco1	864 s
O=C(Cn1nc(N2CCCCCC2)c2ccccc2c1=O)NCc1ccc(F)cc1	1040 s

----------
experiment: gradient 5% acetonitrile 3 min, to 50% in 2 min, to 85% in 15 min, held 3 min, 100 µL/min; conditions: column: Zorbax Extend-C18 2.1 x 50 mm; eluents: water / acetonitrile, 0.1% formic acid

molecule	unit_symbol	RP-LC retention time
COc1ccccc1-c1noc(C2CCCN2C(=O)c2ccsc2)n1 (stereo not given)	s	802
O=c1ccc(-c2ccc(F)cc2)nn1CCc1nc(-c2cccc(Br)c2)no1	s	1100
CCc1csc(-c2ccc(N3CCN(C(=O)c4c(F)cccc4F)CC3)nc2)n1	s	976
Cc1ccc(C)c(-c2cc3c(=O)n(Cc4nc(-c5ccccc5Cl)no4)ncn3n2)c1	s	1220
C[C@H](CCC(=O)NCCS(=O)(=O)O)[C@H]1CC[C@H]2[C@@H]3[C@H](O)C[C@@H]4C[C@H](O)CC[C@]4(C)[C@H]3C[C@H](O)[C@]12C	s	665
COc1ccc(CNC(=O)NCc2cccnc2OC)cc1	s	691
CN(Cc1ccccc1)C(=O)c1cn(-c2cc(N3CCSCC3)ncn2)cn1	s	869
COc1ccc(-c2csc(Nc3cccc(C)n3)n2)cc1	s	821
O=S(=O)(c1ccc(-c2noc(-c3ccc(F)cc3)n2)cc1)N1CCOCC1	s	1050
CCc1ccc(-c2csc(Nc3ccc(S(=O)(=O)Nc4cc(OC)nc(OC)n4)cc3)n2)cc1	s	1150
Cc1nn(C)c(C)c1CCCN(C)C(=O)CCc1ccnc(N2CCOCC2)c1	s	521
O=C(c1ccc(Cl)cc1)N1CCC2(CC1)N=C(c1ccccc1)NO2	s	824
CCCCN(C)C(=O)C1CCN(c2cncnc2N2CCOCC2)CC1	s	614
CCn1ccc(C(=O)Nc2ccc(N3CCN(c4ccccc4)C3=O)nc2)n1	s	786
Cc1ccc(-c2noc(-c3nc(Cc4ccccc4)no3)n2)cc1	s	1240
CCCNC(=O)N1CCN(Cc2nc3cccnc3n2-c2cc(C)cc(C)c2)CC1	s	656
O=C(c1noc2ccc(S(=O)(=O)N3CCCc4ccccc43)cc12)N1CCCC1	s	1060
Cc1ccc(C)c(N2CCN(c3ccnc(SCC(=O)Nc4ccccc4C)n3)CC2)c1	s	1010
CC1=NS(=O)(=O)N(Cc2ccccc2)C=C1C(=O)OCc1noc(-c2cccc(Cl)c2)n1	s	1130
CC(Oc1ccc(-c2cnc3ccccc3n2)cc1)C(=O)N1CCOCC1 (stereo not given)	s	751
O=C(C1CCC(=O)N1S(=O)(=O)c1ccccc1)N1CCN(C2CCCCC2)CC1 (stereo not given)	s	619
CC(C)CC1c2nccn2CCCN1C(=O)c1cc(C2CC2)[nH]n1 (stereo not given)	s	614
O=C(C1CC1)N1CCC(c2noc(-c3cccnc3)n2)C1 (stereo not given)	s	631
O=C(CN1CC=C(c2cnn(-c3ccccc3)c2)CC1)N1CCN(Cc2ccc3c(c2)OCO3)CC1	s	591
CCCCN(C)C(=O)Cn1nc(C)c2c(C)n(-c3ccccc3)nc2c1=O	s	787

----------
experiment: gradient 5% acetonitrile 3 min, to 50% in 2 min, to 85% in 15 min, held 3 min, 100 µL/min; conditions: column: Zorbax Extend-C18 2.1 x 50 mm; eluents: water / acetonitrile, 0.1% formic acid
Label 1 when RP-LC retention time < 800 s; otherwise 0.

compound	classification
COc1ccc(OC)c(NC(=O)N2CCC(OC3CCN(S(C)(=O)=O)CC3)CC2)c1	1
NC[C@@H]1O[C@H](c2ccccc2)Cc2c1ccc(O)c2O	1
COc1cc(NC(=O)C2CCCN(S(=O)(=O)c3cc(-c4noc(C)n4)cs3)C2)cc(OC)c1 (stereo not given)	0
CN(Cc1ccco1)C(=O)C1CCCN(c2nc3cccnc3s2)C1 (stereo not given)	1
Cc1nn(-c2ccc(Cl)nn2)c2c1CCC2	0
Cc1ccc(-n2nc(OCC(=O)Nc3cc(F)ccc3F)ccc2=O)cc1C	0
O=C(Nc1ccc2c(c1)N(C(=O)c1cccs1)CCC2)c1ccccc1Br	0
Cc1cc(C(=O)N2CCC3(CCC3O)CC2)c(C)o1 (stereo not given)	1
O=S(=O)(c1cccs1)N1CCN(c2cnn3cnnc3c2)CC1	1
O=C(c1ccccc1Cl)N1CCN(c2nc(CN3CCOCC3)cs2)CC1	1
CCN(Cc1ccccc1)S(=O)(=O)c1c(C)c(-c2nnc(C3CCC3)o2)n(C)c1C	0
O=C(O)c1cnc(N2CCOCC2)nc1-c1ccccn1	1
O=S(=O)(c1ccc2c(c1)OCCO2)N1CCCn2nc(-c3cccs3)cc2C1	0
CCOc1ccc(NC(=O)Cn2nc3cc(-c4ccccc4)nc(C)n3c2=O)cc1	0
Cn1c(-c2cccs2)c(CNC(=O)Nc2ccc3c(c2)OCO3)c2ccccc21	0
O=C(C1CN(S(=O)(=O)c2ccccc2)CC12CCCCC2)N1CCOCC1 (stereo not given)	0
Cc1ccc(S(=O)(=O)N2CCC(c3nc(-c4ccccn4)no3)CC2)cc1	0
CC1=CC(=O)C2=C(C)C[C@H](O)[C@H]3[C@H](C)C(=O)O[C@@H]3C12 (stereo not given in full)	1
O=S(=O)(c1cccn2c(SCc3cc(F)cc(F)c3)nnc12)N1CCCC1	0
CCn1nnc(NCc2ccc(-c3cccc(Cl)c3)o2)n1	0
Cn1ncc2c(N3CCSCC3)nc(C(=O)NCCc3ccc(Cl)cc3)nc21	0
N#CC1(c2ccc(NC(=O)c3cccnc3NCc3ccncc3)cc2)CCCC1	1
